Value source: the nanobody polyreactivity screen of Harvey et al. (2022)

- experiment-description: yeast display, Sf9 membrane polyspecificity reagent, FACS + sequencing; frameworks hold sequencing errors

sequence-record	polyreactivity (PSR sort gate)
QVQLVESGGGLVQAGGSLRLSCAASGSISVVNMGWYRQAPGKERELVASITSSGSTTYADSVKGRFTISRDNAKNTVYLQMNSLKPEDTAVYYCAADVGTDYTYQHPAGAAYDYWGQGTQVTVSS	low polyreactivity
QVQLVESGGGLVQAGGSLRLSCAASGRILPYNVMGWYRQAPGKEREFVAAITGSGGDTYYADSVKGRFTISRDNAKNTVYLQMNSLKPEDTAVYYCAAAPYIGGSFGQTPGSGYWGQGTQVTVSS	low polyreactivity
